studySystem: T1, human ADAMTS5 (human, UniProt Q9UNA0 262-622, limits assumed)
T1 construct: Octet and ELISA used 'recombinant human ADAMTS5'; also called recombinant human ADAMTS5; ADAMTS5 (R&D Systems 2198-AD)
T1 sequence: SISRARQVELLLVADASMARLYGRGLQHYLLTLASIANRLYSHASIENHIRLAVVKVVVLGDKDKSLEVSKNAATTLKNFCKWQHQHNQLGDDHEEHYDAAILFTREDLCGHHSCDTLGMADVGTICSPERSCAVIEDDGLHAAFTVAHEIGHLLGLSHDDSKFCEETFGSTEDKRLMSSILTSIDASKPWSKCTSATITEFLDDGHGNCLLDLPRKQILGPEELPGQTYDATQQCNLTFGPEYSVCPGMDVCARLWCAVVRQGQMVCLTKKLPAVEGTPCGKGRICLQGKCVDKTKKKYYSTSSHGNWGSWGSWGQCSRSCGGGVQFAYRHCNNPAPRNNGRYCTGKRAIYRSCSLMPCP
protocolSummary: Biacore, mAb from culture supernatant captured on anti-human IgG, ADAMTS5 (R&D 2198-AD) at 64 nM, 1:1 fit
Threshold rule: koff greater than or equal to 0.001 s⁻¹ is TRUE; below that, FALSE.

- binder: "BPC1636 (antibody, human IgG1, kappa, V domains shown, Humanized, human gamma 1 / kappa; also called 7B4 H2L0) VH: EVQLVESGGGLVQPGGSLRLSCAASGFTSSDAWMDWVRQAPGKGLEWVAEIRNKANNHARHYAESVKGRFTISRDNAKNSLYLQMNSLRAEDTAVYYCARTYYYGSSYGYCDVWGQGTLVTVSS VL: DIQMTQSPSSLSASVGDRVTITCRTSENIYSYLAWYQQKPGKAPKLLIYNAKTLAEGVPSRFSGSGSGTDFTLTISSLQPEDFATYYCQHHYGTPWTFGQGTKLEIKR"
  cat: "FALSE"

Given BPC1654 (antibody, human IgG1, kappa, V domains shown, Humanized, human gamma 1 / kappa; also called 7B4 H6L2) VH: EVQLVESGGGLVQPGGSLRLSCAASGFTSSDAWMDWVRQAPGKGLEWVAEIRNKANNHARHYAESVKGRFTISRDDAKNSVYLQMNSLRAEDTAVYYCTRTYYYGSSYGYCDVWGQGTLVTVSS VL: DIQMTQSPSSLSASVGDRVTITCRTSENIYSYLAWYQQKPGKAPQLLVYNAKTLAEGVPSRFSGSGSGTDFTLTISSLQPEDFATYYCQHHYGTPWTFGQGTKLEIKR , state whether its koff is at least 0.001 s⁻¹.
TRUE

Would you say BPC1641 (antibody, human IgG1, kappa, V domains shown, Humanized, human gamma 1 / kappa; also called 7B4 H0L1) VH: EVQLVESGGGLVQPGGSLRLSCAASGFTFSDAWMDWVRQAPGKGLEWVAEIRNKANNHARHYAESVKGRFTISRDNAKNSLYLQMNSLRAEDTAVYYCARTYYYGSSYGYCDVWGQGTLVTVSS VL: DIQMTQSPSSLSASVGDRVTITCRTSENIYSYLAWYQQKPGKAPKLLVYNAKTLAEGVPSRFSGSGSGTDFTLTISSLQPEDFATYYCQHHYGTPWTFGQGTKLEIKR shows koff at minimum 0.001 s⁻¹?
FALSE

Check this binder for koff at or above 0.001 s⁻¹: BPC1639 (antibody, human IgG1, kappa, V domains shown, Humanized, human gamma 1 / kappa; also called 7B4 H5L0) VH: EVQLVESGGGLVQPGGSLRLSCAASGFTSSDAWMDWVRQAPGKGLEWVAEIRNKANNHARHYAESVKGRFTISRDNAKNSVYLQMNSLRAEDTAVYYCTRTYYYGSSYGYCDVWGQGTLVTVSS VL: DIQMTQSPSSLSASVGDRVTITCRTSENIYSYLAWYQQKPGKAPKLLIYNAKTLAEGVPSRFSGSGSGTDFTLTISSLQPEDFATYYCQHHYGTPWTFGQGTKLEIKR
FALSE

Is it the case that BPC1653 (antibody, human IgG1, kappa, V domains shown, Humanized, human gamma 1 / kappa; also called 7B4 H5L2) VH: EVQLVESGGGLVQPGGSLRLSCAASGFTSSDAWMDWVRQAPGKGLEWVAEIRNKANNHARHYAESVKGRFTISRDNAKNSVYLQMNSLRAEDTAVYYCTRTYYYGSSYGYCDVWGQGTLVTVSS VL: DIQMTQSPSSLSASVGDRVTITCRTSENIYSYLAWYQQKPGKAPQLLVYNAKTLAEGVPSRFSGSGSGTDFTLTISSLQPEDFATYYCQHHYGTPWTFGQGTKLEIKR has koff reaching or exceeding 0.001 s⁻¹?
TRUE
